TESTED_TARGET: human prostate specific membrane antigen (PSMA), full-length, on cells (human, UniProt Q04609 1-750)
Sequence (Q04609 whole entry): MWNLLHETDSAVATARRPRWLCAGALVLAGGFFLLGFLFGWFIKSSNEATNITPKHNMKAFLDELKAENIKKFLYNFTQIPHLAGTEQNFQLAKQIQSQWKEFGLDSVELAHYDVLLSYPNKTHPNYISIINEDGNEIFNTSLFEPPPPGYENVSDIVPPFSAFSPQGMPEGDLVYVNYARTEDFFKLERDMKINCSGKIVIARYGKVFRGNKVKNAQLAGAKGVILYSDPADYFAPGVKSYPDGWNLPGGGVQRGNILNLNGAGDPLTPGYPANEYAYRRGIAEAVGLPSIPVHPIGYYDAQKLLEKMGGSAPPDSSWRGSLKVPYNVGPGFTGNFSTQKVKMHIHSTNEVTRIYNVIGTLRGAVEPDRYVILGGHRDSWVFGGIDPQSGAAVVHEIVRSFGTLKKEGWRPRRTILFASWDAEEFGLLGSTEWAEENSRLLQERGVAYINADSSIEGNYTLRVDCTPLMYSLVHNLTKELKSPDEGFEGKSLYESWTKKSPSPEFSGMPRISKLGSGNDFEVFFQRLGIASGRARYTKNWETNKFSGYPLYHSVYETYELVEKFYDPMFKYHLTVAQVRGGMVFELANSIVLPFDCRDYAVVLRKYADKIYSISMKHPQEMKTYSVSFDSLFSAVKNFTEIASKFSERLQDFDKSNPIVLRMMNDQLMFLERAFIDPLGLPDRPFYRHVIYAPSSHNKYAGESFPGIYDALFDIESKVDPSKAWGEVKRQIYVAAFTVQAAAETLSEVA
ASSAY_OVERVIEW: cell-based or functional assay
READOUT_KIND: Mean Max % Cell kill, DU145 PSMA cells, 48 h
Param answer (str): number followed by unit.

Some binders with recorded Mean Max % Cell kill, DU145 PSMA cells, 48 h:
HiPEG B-His6 val-cit-PAB-MMAE (VHH, HiPEG val-cit-PAB-MMAE attached via the C-terminal His6-tag, DAR 0.9) VHH: EVQLLESGGGLVQPGGSLRLSCAASGFSFSSYAMSWVRQAPGKGLEWVSSIGENDGTTDYADSVKGRFTISRDNSKSMLYLQMNSLRVEDTAVYYCVKDGVHWGQGTLVTVSS : 73%
HiPEG B-1-A-His6 val-cit-PAB-MMAE (bispecific antibody, HiPEG val-cit-PAB-MMAE attached via the C-terminal His6-tag, DAR 1) EVQLLESGGGLVQPGGSLRLSCAASGFSFSSYAMSWVRQAPGKGLEWVSSIGENDGTTDYADSVKGRFTISRDNSKSMLYLQMNSLRVEDTAVYYCVKDGVHWGQGTLVTVSSGGGGSGGGGSEVQLVESGGGVVQPGRSLRLSCAASGFSFSGYGMHWVRQAPGKGLEWVAYISYDGSNKYYADSVKGRFTISRDNSKNTLYLQMNSLRAEDTAVYYCAKDPAWGLRLGESSSYDFDIWGQGTMVTVSS : 79%
HiPEG A-1-B-His6 val-cit-PAB-MMAE (bispecific antibody, HiPEG val-cit-PAB-MMAE attached via the C-terminal His6-tag, DAR 1) EVQLVESGGGVVQPGRSLRLSCAASGFSFSGYGMHWVRQAPGKGLEWVAYISYDGSNKYYADSVKGRFTISRDNSKNTLYLQMNSLRAEDTAVYYCAKDPAWGLRLGESSSYDFDIWGQGTMVTVSSGGGGSGGGGSEVQLLESGGGLVQPGGSLRLSCAASGFSFSSYAMSWVRQAPGKGLEWVSSIGENDGTTDYADSVKGRFTISRDNSKSMLYLQMNSLRVEDTAVYYCVKDGVHWGQGTLVTVSS : 75%

Attention now turns to another entry.
Asked: Name the recorded Mean Max % Cell kill, DU145 PSMA cells, 48 h for HiPEG C-2-C-His6 val-cit-PAB-MMAE (VHH, HiPEG val-cit-PAB-MMAE attached via the C-terminal His6-tag, DAR 1) EVQLVESGGGVVQPGRSLRLSCAASGFPLISYGMHWVRQAPGKGLEWVAFMTYDGSNRYYADSVKGRFTISRDNSKNTLYLQMNSLRDEDTALYYCARDRIVGGRVPDAFDIWGQGTMVTVSSGGGGSGGGGSGGGGSGGGGSGGGGSGGGGSEVQLVESGGGVVQPGRSLRLSCAASGFPLISYGMHWVRQAPGKGLEWVAFMTYDGSNRYYADSVKGRFTISRDNSKNTLYLQMNSLRDEDTALYYCARDRIVGGRVPDAFDIWGQGTMVTVSS .
Given back: 69%
